Recorded TGI, one value per entry.
# System: COLO 205 colon
# ASSAY EXPLANATION: NCI tumour cell line growth inhibition, 48 h

- COMPOUND: "S=C(N/N=C/c1ccccc1)NC1CC(c2ccccc2)Oc2ccccc21 (configuration not stated)"
  TGI: "> 100 µM"
- COMPOUND: "CCOc1ccccc1Nc1nc(C)c(C(=O)CC(=O)C(=O)Nc2ccccc2)s1"
  TGI: "> 100 µM"
- COMPOUND: "O=C(Cl)c1cc([N+](=O)[O-])cc([N+](=O)[O-])c1"
  TGI: "> 100 µM"
- COMPOUND: "CC(C)(C)C(=O)Cc1cc2c(cc1C(=O)O)S(=O)(=O)NC(C(C)(C)C)=C2"
  TGI: "> 100 µM"
- COMPOUND: "CN1C(=N\\S(=O)(=O)c2ccc(Cl)cc2)/C(=N/N=P(c2ccccc2)(c2ccccc2)c2ccccc2)c2ccccc21"
  TGI: "> 100 µM"
- COMPOUND: "C/C(=C1/N=C(c2ccccc2)OC1=O)c1cccs1"
  TGI: "> 100 µM"
- COMPOUND: "CN1CCN(c2nc3c(c(=O)n(C)c(=O)n3C)n2C)CC1"
  TGI: "> 100 µM"
- COMPOUND: "Cn1c(N)cc(=O)nc1N"
  TGI: "> 100 µM"
- COMPOUND: "N#Cc1ccccc1C#C/C=C\\C#Cc1cnccn1"
  TGI: "> 57.5 µM"
- COMPOUND: "COc1c(-c2ccc3c(c2)OCO3)oc2cc3c(c(OC)c2c1=O)OCO3"
  TGI: "> 100 µM"
- COMPOUND: "CN(C)CCCn1c2c(c3ccc([N+](=O)[O-])cc3c1=O)C(=O)c1ccccc1-2"
  TGI: "87.5 µM"
- COMPOUND: "COC(=O)C(I(OS(=O)(=O)c1ccc(C)cc1)c1ccccc1)=P(c1ccccc1)(c1ccccc1)c1ccccc1"
  TGI: "13.1 µM"
- COMPOUND: "C/C=C\\C(C)=C/C(C)C(=O)CC(O)CC1CC(=O)NC(=O)C1 (configuration not stated)"
  TGI: "> 100 µM"
- COMPOUND: "Nc1cc(N)c2nc(-c3ccccc3)c(Sc3ccc(F)cc3)nc2c1"
  TGI: "47.9 µM"
- COMPOUND: "Clc1ccc(CCn2ccc3ccccc32)c(Cl)c1"
  TGI: "> 100 µM"
- COMPOUND: "Cc1ccc(S(=O)(=O)NC(CCCCN)C(=O)CCl)cc1 (configuration not stated)"
  TGI: "> 100 µM"
- COMPOUND: "O=c1[nH]c2cccccc-2c1-c1nc2ccccc2[nH]1"
  TGI: "> 100 µM"
- COMPOUND: "O=C(Nc1cccc(Cl)c1)c1cc2cc(N=Nc3ccc(Br)cc3)ccc2oc1=O"
  TGI: "> 100 µM"
- COMPOUND: "O=C(c1ccccc1)c1cc(-c2ccccc2)c(-c2ccccc2)[nH]c(=O)c1=O"
  TGI: "61.5 µM"
- COMPOUND: "Cc1nn(-c2ccccc2)c2ncc3c(c12)C(=O)N(Cc1ccccc1)C3=O"
  TGI: "> 100 µM"
- COMPOUND: "COc1ccc(C2CC(c3ccc(OC)c(OC)c3)=NN2C(=O)c2cc(OC)c(OC)c(OC)c2)cc1 (configuration not stated)"
  TGI: "> 28 µM"
- COMPOUND: "CC(C)(Oc1ccc(C2C[C@H]2Cl)cc1)C(=O)O (some centres not stated)"
  TGI: "> 100 µM"
- COMPOUND: "COC(=O)c1ccc2[nH]c3c(c2c1)CC(=O)Nc1ccccc1-3"
  TGI: "> 100 µM"
- COMPOUND: "CC(C)(C)OC(=O)N(CCCN)CCCCN(CCCN)C(=O)OC(C)(C)C"
  TGI: "> 100 µM"
- COMPOUND: "COc1ccc(C(=O)CC(Cl)=C(Cl)Cl)cc1"
  TGI: "61.5 µM"
- COMPOUND: "COc1nc(NC2OCC(OC(C)=O)C(OC(C)=O)C2OC(C)=O)c(N=C(C)C(C)=O)c(=O)n1C (configuration not stated)"
  TGI: "> 100 µM"
- COMPOUND: "N#Cc1c(C#N)c(-c2ccco2)n(/N=C/c2ccco2)c1N"
  TGI: "> 100 µM"
- COMPOUND: "COc1ccc2[nH]c3c(C)c4ccnc(NCCCN(C)CCCNC(=O)NCCCN(C)CCCNc5nccc6c(C)c7[nH]c8ccc(OC)cc8c7c(C)c56)c4c(C)c3c2c1"
  TGI: "0.858 µM"
- COMPOUND: "COc1cc2c(oc(=O)c3c4oc([Si](C)(C)C)cc4cc(OC)c23)c2cccc(O)c12"
  TGI: "> 100 µM"
- COMPOUND: "CC(C)(C)OC(=O)NCCNC(=O)OCc1ccccc1"
  TGI: "> 100 µM"
- COMPOUND: "O=C(C(Cl)=C(Nc1ccccc1)Nc1ccccc1)C(Cl)Cl"
  TGI: "97.7 µM"
- COMPOUND: "COc1ccc(/C=C2\\CC(C)CC3C2=NN(C(C)=O)C3c2ccc(OC)c(OC)c2)cc1OC (configuration not stated)"
  TGI: "27.7 µM"
- COMPOUND: "CCOC(=O)C1(C/C=C\\CBr)CCCCCCC1=O (configuration not stated)"
  TGI: "> 100 µM"
- COMPOUND: "C[N+](C)(C)CC(=O)N/N=C(\\C(=O)Nc1ccc(Cl)cc1)C1C(=O)N(c2ccccc2)N=C1N (configuration not stated)"
  TGI: "> 100 µM"
- COMPOUND: "C[C@H]1C(=O)C2=C[C@H]1CCC(=O)[C@]1(C)CCCC(C)(C)[C@H]1C[C@H]2O"
  TGI: "28.4 µM"
- COMPOUND: "CCOC(=O)C1C(=O)C=C(c2cc(C)ccc2O)CC1c1cccc(Br)c1 (configuration not stated)"
  TGI: "31.1 µM"
- COMPOUND: "CCOC(=O)c1ccccc1NC(c1ccccc1)c1ccc2cccnc2c1O (configuration not stated)"
  TGI: "24.1 µM"
- COMPOUND: "Cc1nn(C(=O)CC(=O)Nc2ccccc2Cl)c(C)c1N=Nc1ccccc1Cl"
  TGI: "> 100 µM"
- COMPOUND: "Cc1cc(C)n(CN(Cn2nc(C)cc2C)c2ccc(N(Cn3nc(C)cc3C)Cn3nc(C)cc3C)cc2)n1"
  TGI: "31.5 µM"
- COMPOUND: "CCCCCCn1c(=N)n(CC(O)COc2cccc(C)c2)c2ccccc21 (configuration not stated)"
  TGI: "3.43 µM"
- COMPOUND: "N#Cc1ccc(/C=C2\\Cc3ccccc3C2=O)cc1"
  TGI: "> 100 µM"
- COMPOUND: "O=S(O)CCCSSCCCCSSCCCS(=O)O"
  TGI: "> 100 µM"

###

# Test system: UACC-62 melanoma
# ASSAY EXPLANATION: NCI tumour cell line growth inhibition, 48 h
Recorded TGI, one value per entry.

- COMPOUND: "CCOC(=O)C1C(=O)C=C(c2cc(C)ccc2O)CC1c1cccc(Br)c1 (centres undefined)"
  TGI: "28 µM"
- COMPOUND: "COc1ccc2nccc(C3OC(=O)N4CCC(=O)CC34)c2c1 (centres undefined)"
  TGI: "> 100 µM"
- COMPOUND: "Cc1cc(N2CCOCC2)nc(N(CCNc2ccnc3cc(Cl)ccc23)Cc2cccs2)n1"
  TGI: "3.65 µM"
- COMPOUND: "C[C@H]1C(=O)C2=C[C@H]1CCC(=O)[C@]1(C)CCCC(C)(C)[C@H]1C[C@H]2O"
  TGI: "> 100 µM"
- COMPOUND: "O=C(N/N=C/c1cc(-c2ccccc2Cl)c(-c2ccccc2Cl)o1)c1ccncc1"
  TGI: "> 100 µM"
- COMPOUND: "COc1ccc(C2CC(c3ccc(OC)c(OC)c3)=NN2C(=O)c2cc(OC)c(OC)c(OC)c2)cc1 (centres undefined)"
  TGI: "> 100 µM"
- COMPOUND: "CC1CCCC2(O1)OC1CC(=O)OC1C1=C2C(=O)c2ccccc2C1=O (centres undefined)"
  TGI: "5.1 µM"
- COMPOUND: "COc1ccc(/C=N/NC(=O)c2ccccc2Nc2ccccc2C(=O)N/N=C/c2ccc(OC)c(OC)c2)cc1OC"
  TGI: "> 100 µM"
- COMPOUND: "CN1C(=N\\S(=O)(=O)c2ccc(Cl)cc2)/C(=N/N=P(c2ccccc2)(c2ccccc2)c2ccccc2)c2ccccc21"
  TGI: "> 100 µM"

###

# System: OVCAR-8 ovarian
# ASSAY EXPLANATION: NCI tumour cell line growth inhibition, 48 h; in the data active = GI50 below about 0.43 µM; inactive = the rest
Possible outcomes: yes (1) = active, no (0) = inactive

- COMPOUND: "Cn1c([N+](=O)[O-])cnc1/C=C1\\Oc2ccc(Cl)cc2C1=O"
  CATEGORY: "yes (1)"
- COMPOUND: "CCN(CC)CCCC(C)NC(=S)N/N=C(\\C)c1ccccn1 (configuration not stated)"
  CATEGORY: "no (0)"
- COMPOUND: "CCOC(=O)C(Cc1ccc(N(CCCl)CCCl)cc1)NC(=O)C(CC(C)C)NC(C)=O (configuration not stated)"
  CATEGORY: "no (0)"
- COMPOUND: "COc1ccc(C2CC(c3cccc(Nc4ccnc5cc(Cl)ccc45)c3)=NN2c2ccc(Cl)cc2)cc1 (configuration not stated)"
  CATEGORY: "no (0)"
- COMPOUND: "N#Cc1ccccc1C#C/C=C\\C#Cc1cnccn1"
  CATEGORY: "no (0)"
- COMPOUND: "O=C(CCc1nnc2s/c(=C\\c3ccc(Cl)cc3Cl)c(=O)n12)Nc1cc(Cl)c(Cl)cc1Cl"
  CATEGORY: "no (0)"
- COMPOUND: "C=C1C(=O)O[C@H]2[C@H]1CC/C(Cn1cc(CNC(=O)c3cc4ccccc4[nH]3)nn1)=C\\CC[C@@]1(C)O[C@@H]21"
  CATEGORY: "no (0)"

All values here come from PubChem BioAssay (NCI).
